assayEndpoint: melting point

molecule	melting point
Nc1ccc2oc(-c3cc(F)ccc3Br)nc2c1	159 to 161 °C

Exercise: Form field: reported melting point of CC(C)(C)Oc1cccc(CCC(=O)O)n1
Key: 82 to 84 °C

Exercise: Another: O=C(O)c1ccc(COc2ccc(F)cc2)o1
Key: 165 to 167 °C

Exercise: Another: Cc1cc(OCC(=O)O)ccc1Cl
Key: 180 to 182 °C

Exercise: Another: O=C1CC(c2ccccc2)Nc2ccccc2N1 (configuration not stated)
Key: 162 to 164 °C

Exercise: Another: O=C(O)Cn1nnc(-c2ccco2)n1
Key: 216 to 218 °C

====

assayEndpoint: melting point

Below are worked cases with known answers.
compound	assayEndpoint	experimentalValue
O=C(O)C1(c2cccc(F)c2)CCC1	melting point	67 to 69 °C
CNC(=O)c1cc(NC)ccn1	melting point	114 to 116 °C
O=C(O)c1cccc(-n2[nH]c(=O)ccc2=O)c1	melting point	312 to 314 °C

Exercise: Form field: reported melting point of Nc1sc2c(c1-c1nc3ccccc3s1)CCCC2
Key: 100 to 104 °C

Exercise: Another: Cc1cc2ncn(CC3CO3)c2cc1C (configuration not stated)
Key: 119 to 121 °C

Exercise: Another: O=Cc1c(Cl)cccc1OCc1ccccc1Cl
Key: 92 to 94 °C

Exercise: Another: ClCc1ncc(-c2ccccc2)o1
Key: 63 to 65 °C

Exercise: Another: O=C(O)C(NCC(F)(F)F)c1cc(Br)cs1 (configuration not stated)
Key: 178 to 180 °C

Exercise: Another: CCOC(=O)C(=O)c1c(C)[nH]c2ccccc12
Key: 127 to 129 °C

Exercise: Another: O=C(O)Cc1ccon1
Key: 84 to 86 °C

Exercise: Another: O=C(CCCl)NC(=O)NCC(F)(F)F
Key: 145 to 147 °C

Exercise: Another: COc1ccc(S(N)(=O)=O)cc1C
Key: 137 to 139 °C

Exercise: Another: O=C(O)COc1ccc(C(=O)c2ccc(Cl)cc2)cc1
Key: 185 to 187 °C

Exercise: Another: O=C(O)c1cc(NCc2ccccc2)nc2ccccc12
Key: 339 to 341 °C

Exercise: Another: COc1ccc(-n2c(C)cc(C=O)c2C)cc1
Key: 133 to 135 °C

Exercise: Another: Cc1cccc(N)c1C(=O)N1CCCC1
Key: 87 to 89 °C

Exercise: Another: CC(=O)Nc1c(Br)cccc1[N+](=O)[O-]
Key: 192 to 194 °C

Exercise: Another: CC(C)(N)c1noc(C(N)=O)n1
Key: 168 to 170 °C

Exercise: Another: Cc1c(-c2ccccc2)nc2ccccc2c1C(=O)O
Key: 235 to 237 °C

Exercise: Another: O=C(O)C(=O)Cc1ccc(Cl)c(Cl)c1
Key: 169 to 171 °C

Exercise: Another: O=C(Nc1ccc(OC(F)(F)F)cc1)OCC(F)(F)F
Key: 64 to 66 °C

Exercise: Another: Cc1ccccc1CC(=O)NN
Key: 129 to 131 °C

Exercise: Another: O=C(Nc1ccc(Cl)cc1)Nc1ccccc1Br
Key: 222 to 224 °C

Exercise: Another: CC(C)(C)OC(=O)Nc1ccc(C(F)(F)F)cc1N
Key: 140 to 142 °C

Exercise: Another: NS(=O)(=O)c1cc(Cl)ccc1[N+](=O)[O-]
Key: 157 to 159 °C

Exercise: Another: O=C(CCl)N1CCN(c2ccc([N+](=O)[O-])cc2)CC1
Key: 129 to 131 °C

Exercise: Another: Cc1ccc(S(=O)(=O)N2CCOCC2)cc1NC(=O)CCl
Key: 76 to 78 °C
